measurement target: PKA (Homo sapiens (Human))
The label TRUE is reserved for IC50 strictly under 6 µM; FALSE covers values equal to or above it.

Solved cases (3 shown):
# compound, measurement target, label class
records = [
    ("Cc1c(Oc2cccc(CN)c2F)ccc2c1B(O)OC2", "PKA (Homo sapiens (Human))", "TRUE"),
    ("CC(C)c1c(Oc2ccc(CN)cc2Cl)ccc2c1B(O)OC2", "PKA (Homo sapiens (Human))", "TRUE"),
    ("Cc1c(Oc2ccc(C(C)N)cc2F)ccc2c1B(O)OC2 (single isomer, unassigned) [G]", "PKA (Homo sapiens (Human))", "TRUE"),
]

Just wondering, is IC50 of Cc1c(Oc2ccc(C(C)N)cc2F)ccc2c1B(O)OC2.Cl (single isomer, unassigned) below 6 µM?
FALSE

* * *

measurement target: UniProt O75116
experiment notes: ROCK2 phosphorylation activity (Reaction Biology, radiometric)
Type: biochemical
condition details: value for PKA/ROCK2
Sequence (O75116 5-554): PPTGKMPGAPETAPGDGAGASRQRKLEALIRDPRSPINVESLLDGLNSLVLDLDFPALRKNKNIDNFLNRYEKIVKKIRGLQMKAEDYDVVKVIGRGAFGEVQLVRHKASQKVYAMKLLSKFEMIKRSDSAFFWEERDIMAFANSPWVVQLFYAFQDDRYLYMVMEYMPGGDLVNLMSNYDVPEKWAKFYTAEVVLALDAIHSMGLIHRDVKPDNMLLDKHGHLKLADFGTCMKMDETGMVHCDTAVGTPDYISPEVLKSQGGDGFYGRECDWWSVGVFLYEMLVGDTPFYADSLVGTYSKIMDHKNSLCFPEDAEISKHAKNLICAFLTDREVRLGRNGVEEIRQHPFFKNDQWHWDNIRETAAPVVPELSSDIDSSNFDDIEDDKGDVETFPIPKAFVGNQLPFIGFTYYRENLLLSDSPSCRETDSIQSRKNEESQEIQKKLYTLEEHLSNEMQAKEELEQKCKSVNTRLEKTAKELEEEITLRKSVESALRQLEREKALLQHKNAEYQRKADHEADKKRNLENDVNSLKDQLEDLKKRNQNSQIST
measured property: SELECTIVITY RATIO
A bare number is all that is needed in reply.

// below: answered molecules
# chemical smiles, experimental result
records = [
    ("Cc1c(Oc2cccc(CN)c2F)ccc2c1B(O)OC2", 15.65),
    ("Cc1c(Oc2cccc(CNC(=O)OC(C)(C)C)c2F)ccc2c1B(O)OC2", 11.87),
]

// below: SELECTIVITY RATIO requested for another molecule
SELECTIVITY RATIO for Cc1c(Oc2ccc(CN)cc2F)ccc2c1B(O)OC2 ?
16.29

* * *

measurement target: ROCK2 (Homo sapiens (Human))
experiment notes: Kinase binding panel (KINOMEscan), ROCK2
condition details: table under Kinase Binding Panel
Sequence (O75116 whole entry): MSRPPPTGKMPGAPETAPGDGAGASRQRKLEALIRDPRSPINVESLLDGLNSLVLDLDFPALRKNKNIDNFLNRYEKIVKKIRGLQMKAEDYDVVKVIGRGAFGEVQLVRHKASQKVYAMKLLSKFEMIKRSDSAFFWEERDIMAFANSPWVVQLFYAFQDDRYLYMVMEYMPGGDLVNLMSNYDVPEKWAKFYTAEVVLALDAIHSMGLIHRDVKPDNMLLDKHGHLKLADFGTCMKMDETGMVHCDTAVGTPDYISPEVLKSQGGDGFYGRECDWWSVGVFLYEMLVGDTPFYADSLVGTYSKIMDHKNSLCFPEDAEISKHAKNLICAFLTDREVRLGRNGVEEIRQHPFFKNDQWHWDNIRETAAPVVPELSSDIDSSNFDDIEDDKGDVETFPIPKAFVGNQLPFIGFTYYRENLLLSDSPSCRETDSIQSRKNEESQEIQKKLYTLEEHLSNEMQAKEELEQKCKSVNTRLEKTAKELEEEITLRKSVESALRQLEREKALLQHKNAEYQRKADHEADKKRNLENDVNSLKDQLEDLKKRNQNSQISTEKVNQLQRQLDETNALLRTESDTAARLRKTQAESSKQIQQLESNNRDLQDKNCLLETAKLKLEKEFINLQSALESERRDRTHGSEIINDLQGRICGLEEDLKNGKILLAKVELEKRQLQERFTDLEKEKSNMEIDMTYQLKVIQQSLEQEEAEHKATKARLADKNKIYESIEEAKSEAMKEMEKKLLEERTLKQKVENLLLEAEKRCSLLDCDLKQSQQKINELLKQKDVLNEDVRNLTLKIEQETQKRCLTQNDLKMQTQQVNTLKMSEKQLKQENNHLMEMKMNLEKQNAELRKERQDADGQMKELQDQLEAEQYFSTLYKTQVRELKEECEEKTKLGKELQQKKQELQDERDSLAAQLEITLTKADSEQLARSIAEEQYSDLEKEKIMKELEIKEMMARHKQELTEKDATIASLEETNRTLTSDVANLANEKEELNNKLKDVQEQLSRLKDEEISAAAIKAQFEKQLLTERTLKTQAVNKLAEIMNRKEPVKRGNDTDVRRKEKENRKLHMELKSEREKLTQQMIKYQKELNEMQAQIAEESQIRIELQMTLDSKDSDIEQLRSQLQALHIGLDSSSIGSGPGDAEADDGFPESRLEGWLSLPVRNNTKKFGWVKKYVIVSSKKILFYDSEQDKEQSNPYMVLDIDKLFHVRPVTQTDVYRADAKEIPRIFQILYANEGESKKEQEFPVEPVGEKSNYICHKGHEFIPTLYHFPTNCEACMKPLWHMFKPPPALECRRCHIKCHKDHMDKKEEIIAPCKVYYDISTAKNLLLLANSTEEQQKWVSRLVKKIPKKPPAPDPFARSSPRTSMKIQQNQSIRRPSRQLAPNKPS
We begin with a simple list: items and their reported IC50.
# output: number + unit

Guide cases for IC50, answers given:
# compound, measurement target, IC50
records = [
    ("Cc1c(Oc2ccc(C(C)N)cc2F)ccc2c1B(O)OC2 (centres unmarked) [E]", "ROCK2 (Homo sapiens (Human))", "250 nM"),
    ("Cc1c(Oc2ccc(C(C)N)cc2F)ccc2c1B(O)OC2.Cl (single isomer, unassigned)", "ROCK2 (Homo sapiens (Human))", "510 nM"),
    ("Cc1c(Oc2cccc(CNC(=O)OC(C)(C)C)c2F)ccc2c1B(O)OC2", "ROCK2 (Homo sapiens (Human))", "664 nM"),
]

For the compound CC(N)c1ccc(Oc2ccc3c(c2)B(O)OC3)c(F)c1.Cl (centres unmarked) , what IC50 is on record?
450 nM

# IC50 lookup, item Cc1c(Oc2cccc(CN)c2F)ccc2c1B(O)OC2
216 nM

* * *

measurement target: ROCK2 (Homo sapiens (Human), UniProt O75116)
experiment notes: Kinase binding panel (KINOMEscan), ROCK2
condition details: table under Kinase Binding Panel
Below, each entry is listed with its recorded IC50.
Report only the number, with the unit nM understood.

Study these solved cases before continuing.
# molecule, measurement target, IC50 [nM]
data = [
    ("Cc1c(Oc2ccc(CN)cc2F)ccc2c1B(O)OC2", "ROCK2 (Homo sapiens (Human), UniProt O75116)", 250),
    ("Cc1c(Oc2ccc(C(C)N)cc2F)ccc2c1B(O)OC2 (single isomer, unassigned) [G]", "ROCK2 (Homo sapiens (Human), UniProt O75116)", 170),
]

# input for lookup
// returns reported IC50 for input CCc1c(Oc2ccc(CN)cc2Cl)ccc2c1B(O)OC2
250

Data origin, for the record: patent US9493490B1
